target_entity: Schistosoma mansoni thioredoxin glutathione reductase (TGR)
assay_notes: qHTS Assay for the Inhibitors of Schistosoma Mansoni Peroxiredoxins; note: nearly all actives have a fitted effect of over 60% in size
condition_details: purified TGR, DTNB reduction, TNB absorbance 405 nm; series mostly up to 114 µM
About 11,000 (3.1%) of roughly 360,000 compounds were called active. Another 4% or so got no clear call; they are omitted. Calls come from the whole dose curve; as a rule, active = well fitted inhibition curve with a large enough effect; inconclusive = small, poorly fitted or top-dose-only effect; inactive = no such curve, though single readings can be large or run the other way. For the sample, actives were picked, then their nearest neighbours and some compounds at random.
I would appreciate it if you answered using one of these outcomes: active, inactive

Could you please tell me the result logged for O=C(C1=C[C@H](c2ccc(C(F)(F)F)cc2)C[C@H](OCc2ccc(CO)cc2)O1)N1CCN(Cc2ccccc2)CC1 in this assay? active

How did this test come out for COc1ccc(CCNc2nc(-c3ccc(F)cc3)cc(C(F)(F)F)n2)cc1OC ? inactive

Call for entry CCc1ccc(N2C(=O)CN(S(=O)(=O)CC)CC2(C)C(=O)NC2CCCCC2)cc1 (centres undefined) : inactive

Identify the outcome logged in this assay for the molecule shown: COc1ccc(C2C=C(c3ccc(Br)cc3)Nc3nc(NS(C)(=O)=O)nn32)cc1 (centres undefined) active

# fetch the recorded call for Cc1oc2ncnc(N3CCOCC3)c2c1C(=O)NCCc1ccccc1 here inactive

Which result was noted for this molecule in the test: COc1ccc(CC(=O)Nc2nc3n(n2)C(c2ccccc2)CC(=O)N3)cc1OC (centres undefined) inactive

Which outcome was entered for the molecule COc1ccc(C2=CC(c3ccccc3Cl)n3nc(-c4ccc(Cl)cc4)nc3N2)cc1 (centres undefined) in this test? inactive

What was the test verdict on O=C(NCc1ccccc1)C1=C[C@@H](c2ccc(C(F)(F)F)cc2)C[C@@H](OCc2ccc(CO)cc2)O1 ? inactive

Which outcome was entered for the molecule COc1ccc(NC(=O)C2CCCN(S(=O)(=O)c3cccc4nonc34)C2)cc1Cl (centres undefined) in this test? inactive

* * *

target_entity: Schistosoma mansoni thioredoxin glutathione reductase (TGR) (UniProt Q962Y6)
assay_notes: qHTS Assay for the Inhibitors of Schistosoma Mansoni Peroxiredoxins; note: nearly all actives have a fitted effect of over 60% in size
condition_details: purified TGR, DTNB reduction, TNB absorbance 405 nm; series mostly up to 114 µM
In all, about 360,000 compounds went through this assay and about 11,000 (3.1%) were called active. About 4% were inconclusive and are not listed. Calls come from the whole dose curve; as a rule, active = well fitted inhibition curve with a large enough effect; inconclusive = small, poorly fitted or top-dose-only effect; inactive = no such curve, though single readings can be large or run the other way. The full list was thinned out, with actives kept by preference.
Hi there, use one of these labels in your reply, thanks! class 1 (active), class 0 (inactive)

Each compound tested received a call. Report the one for Cc1ccccc1C(=O)Nc1cc(C)c(O)c(-c2nc3ccccc3o2)c1 . class 0

Could you check what this test reported for O=C(CSC1CC(=O)N(CCc2ccccc2)C1=O)Nc1ccc(Cl)cc1 (stereo not given) ? class 0

For COc1ccc(-c2nc3c4ccccc4n(CC(=O)Nc4ccc(C(C)=O)cc4)c(=O)n3n2)cc1 , what call appears in the results of this test? class 0

How did this test come out for COc1cccc(OCC(=O)NNC(=O)c2cnccn2)c1 ? class 0

Identify the outcome logged in this assay for the compound shown: CCOc1ccc(CNC(=O)c2ccc(CS(=O)c3ccccc3)o2)cc1 (stereo not given) class 0

Record lookup: outcome of this test for CSc1nn(Cc2cccc(C)c2)c(N)c1S(=O)(=O)c1ccccc1 ? class 0

State the result this test recorded for Cn1c(=O)c2c(-c3ccccc3Br)n(Cc3ccccc3)cc2n(C)c1=O . class 0

Lab log entry: Cc1cc2c(cc3c(SCc4cccc(Cl)c4)nnc(C)n32)o1 — outcome as called in the assay? class 0

Which result was noted for this compound in the test: COc1ccc2c(c1OC)C(=O)OC2c1c(O)nc(SC)n(-c2ccccc2)c1=O (stereo not given) class 1

Field: outcome | Entry: Cc1cccn2c(=O)c3cc(C(=O)NC(C)c4ccccc4)c(=N)n(CCCO)c3nc12 (stereo not given) class 0

Give the logged outcome of this assay for the following compound: COC(=O)c1ccc(/C=C2/C(=O)Oc3ccccc32)cc1 class 0

State the result this test recorded for CCNC(=S)N1CCN(CCN=CC2=C(O)CC(C)(C)CC2=O)CC1 . class 0

Recorded call for O=C(/C=C\NCC(=O)c1ccccc1)c1ccccc1 ? class 1

Query: recorded result category for Cc1ccccc1C(=O)Nc1sc2c(c1C(=O)N1CCC(C)CC1)CCCC2 in this test class 0

Record request — test call for CC(C)CC(NS(=O)(=O)c1ccc2c(c1)oc(=O)n2C)C(=O)NCc1ccccc1Cl (stereo not given) class 0

Per the assay record, what outcome was assigned to CC(C)(C)C(=O)CSc1ccc(S(=O)(=O)N2CCCC2)cn1 ? class 0

Write down the call the test reported for this compound. Item: COc1ccc(C(=O)c2oc3ccc(Br)cc3c2NC(C)=O)cc1 class 0

Record lookup: outcome of this test for Cc1ccc2c(c1)N(C(=O)Nc1ccc(Br)cc1F)CCO2 ? class 0

Kindly provide the recorded test outcome for the following compound: O=C(NCCc1ccccc1)c1ccc2c(c1)N(Cc1ccc(F)cc1)C(=O)c1ccccc1S2(=O)=O class 0

Test call for this compound, please: O=C(NCc1ccccc1Cl)C1=Cc2cc(Br)ccc2OC1 class 0

Please state the recorded outcome for this compound: O=C(C1CCC(Cn2c(=O)c3sccc3n(Cc3ccccc3F)c2=O)CC1)N1CCCCC1 (stereo not given) class 0

Could you please tell me the result logged for O=C(/C=C/NCc1ccc(F)cc1)c1ccccc1 in this assay? class 0

Fill in: this test's call for CCC1Oc2ccc(Cl)cc2N(CC(=O)O)C1=O (stereo not given) is ___ class 0

What classification did Cc1ccc(SCC(=O)Nc2ccc3oc(-c4ccccc4C)nc3c2)cc1 end up with in this test? class 0

Dear all, I need the recorded test outcome for Cc1ccc(C(=O)Nc2ccc(OCc3cc(=O)n4c(C)csc4n3)cc2)cc1 , thank you. class 0

In this assay, the call recorded for COc1ccc(-n2c(SC)nc(O)cc2=O)cc1 was what? class 0

Status in this test for COc1ccccc1-c1cc(C(F)(F)F)nc(S(=O)(=O)CCCC(=O)Nc2ccc(F)cc2F)n1 ? class 0

What classification did CC1CN(S(=O)(=O)c2ccc(C(=O)Nc3sccc3C(N)=O)cc2)CC(C)O1 (stereo not given) end up with in this test? class 0

What is the recorded call for this compound in the test? CC(C)OC(=O)CN1CCN(c2ccc(Cl)cc2)CC1 class 0

Record request — test call for Cc1cccc(NC(=O)c2ccc3nc(C(C)C)oc3c2)c1C class 0

// outcome(item) with item = CC(=O)N1CCN(CCN=CC2=C(O)CC(C)(C)CC2=O)CC1 class 1

Recorded call for O=C1Oc2ccccc2C(=O)/C1=C/c1ccccc1O ? class 1

Can you look up the reported call for CSc1nc2ccc(C)cc2c(=O)n1-c1cccnc1 for me? class 0

Hi team, can someone confirm the assay call for Cc1ccc(-c2onc(C)c2C)cc1S(=O)(=O)Nc1ccccn1 ? class 0

Identify the outcome logged in this assay for the compound shown: COC(=O)c1ccc(COC(=O)c2cnccn2)cc1 class 0

What did the test return for O=C(NCc1cccs1)c1ccc(CS(=O)Cc2ccccc2Cl)o1 (stereo not given) ? class 0

How did this test come out for NC(=O)c1ccsc1NC(=O)c1ccco1 ? class 1

What was the test verdict on COc1ccc(Cl)cc1NC(=O)C(C)Sc1nc2c(c(=O)[nH]1)CCCC2 (stereo not given) ? class 0

# fetch the recorded call for O=C(/C=C/c1ccccc1)Nc1cc(-c2nc3cc(Cl)ccc3o2)ccc1Cl here class 0

How was O=C(O)CSc1ccc(S(=O)(=O)N2CCCC2)cn1 classified in this test? class 1

Which outcome did this test record for the compound COc1ccc2oc(=N)c(C(=O)Nc3ccc(Br)cc3)cc2c1 ? class 0

So what was the verdict on O=C(/C=C/NNC(=O)c1cccc(Br)c1)c1ccccc1 in this test? class 0

What did this assay record as the result for CC(C)(C)c1ccc(S(=O)(=O)N2CCN(C(=O)c3cc(-c4ccc(Br)cc4)n[nH]3)CC2)cc1 ? class 0

Per the assay record, what outcome was assigned to COc1ccc(-n2c(SC)nc3sc4c(c3c2=O)CCN(C(C)=O)C4)cc1 ? class 0

So what was the verdict on COc1ccc(/C=C/C(=O)c2cc(Br)ccc(=O)c2O)cc1 in this test? class 1
